- target-desc: human plasma proteins
- assay-procedure: plasma protein binding, dialysis 4 h at 37 C, 2 µM, LC-MS/MS
Square brackets hold non-standard residues; d marks the D form. Primed or numbered codes have the meaning given here. Side chains are listed from the residue outwards. Ends that are not written are not given here. * marks the point of attachment. DOTA = O=C(O)CN1CCN(CC(=O)O)CCN(CC(=O)*)CCN(CC(=O)O)CC1; FB = fluorobenzaldehyde oxime; Folate = pteroic acid on Glu; PEG3′ = PEG3 spacer; AO = aminooxy
Some binders, each annotated with its measured Plasma % Bound.
measured-quantity: Plasma % Bound (%)

>>> endpoint_value("folate-[dH][dS][dH][dT][dA][PEG3′]K([AO-FB]) (triazole (positions not given here); numbers in words are those of the source; also: triazole macrocycle via Pra and Az4, places not given here) [Fol-hshta-PEG3-Lys(FB) (compound #2)]")
43
>>> endpoint_value("folate-[dH][dS][dH][dT][dA][PEG3′]K(DOTA)-OH (triazole (positions not given here); not fully specified; printed as folate-hshta-PEG3-Lys(DOTA); numbers in words are those of the source; also: triazole macrocycle via Pra and Az4, places not given here) [Fol-hshta-PEG3-Lys(DOTA) (compound #1189)]")
46
>>> endpoint_value("Folate-[dH][dS][dH][dT][dA]GFK(DOTA)-OH (not fully specified (bridges); printed as folate-hshta-Gly-Phe-Lys(DOTA); also: triazole macrocycle closed by Pra and Lys(N3)/Az4 flanking hshta, not in the given chain) [Folate-hshta-G-F-K(DOTA)-OH (Indi 7327, compound #7327)]")
40.3
